Cited source: ChEMBL document CHEMBL1909046

Test: DRUGMATRIX: Glutamate, NMDA, Agonism radioligand binding (ligand: [3H] CGP-39653)
Format: cell membranes, Rattus norvegicus, Wistar, Cerebral cortex, Membrane
Measurement context: Not Active = under 50% inhibition at 10 µM
Value kind: IC50

These recorded examples may help you get a feel for the data.
• c1ccc(Nc2ccc(Nc3ccccc3)cc2)cc1 = Not Active
• O=NN(CCCl)C(=O)NC1CCCCC1 = Not Active
• Sc1ncnc2nc[nH]c12 [MERCAPTOPURINE ANHYDROUS] = Not Active
• NC[C@H]1CC[C@H](C(=O)O)CC1 = Not Active
• C[C@H](CS)C(=O)N1CCC[C@H]1C(=O)O = Not Active

Value of IC50 reported for the molecule CC(C)[C@@]1(NC(=O)[C@@H]2C[C@@H]3c4cccc5[nH]cc(c45)C[C@H]3N(C)C2)O[C@@]2(O)[C@@H]3CCCN3C(=O)[C@H](Cc3ccccc3)N2C1=O.CS(=O)(=O)O [DIHYDROERGOCRISTINE MESYLATE] is Not Active

###

System: Muscarinic acetylcholine receptor M5 (Homo sapiens, UniProt P08912); further: in other assays of this panel Not Active means under 50% inhibition at 10 µM
Sequence (P08912 whole entry): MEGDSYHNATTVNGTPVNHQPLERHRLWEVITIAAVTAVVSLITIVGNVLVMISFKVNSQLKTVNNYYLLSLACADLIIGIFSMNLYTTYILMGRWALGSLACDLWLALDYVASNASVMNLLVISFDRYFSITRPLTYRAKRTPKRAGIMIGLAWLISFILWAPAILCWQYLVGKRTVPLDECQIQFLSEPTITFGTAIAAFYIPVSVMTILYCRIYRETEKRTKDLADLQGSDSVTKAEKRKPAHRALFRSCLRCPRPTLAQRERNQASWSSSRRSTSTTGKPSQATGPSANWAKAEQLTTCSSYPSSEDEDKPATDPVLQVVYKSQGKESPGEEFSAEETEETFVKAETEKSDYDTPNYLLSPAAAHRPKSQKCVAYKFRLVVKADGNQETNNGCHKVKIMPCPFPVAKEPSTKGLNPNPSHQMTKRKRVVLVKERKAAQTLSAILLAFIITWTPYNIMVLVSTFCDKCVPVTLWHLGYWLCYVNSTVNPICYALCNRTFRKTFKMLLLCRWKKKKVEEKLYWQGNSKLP
Assay type: cell membranes, CHO-K1, Membrane
Measurement context: read-out: Ki
Value kind: Ki (nM)
Numbers only here, please. The scale is nM.

* CCCCc1oc2ccccc2c1C(=O)c1cc(I)c(OCCN(CC)CC)c(I)c1 [AMIODARONE] | 1080
* CN(C)CCCN1c2ccccc2Sc2ccccc21 [PROMAZINE] | 46
* CC/C(=C(\c1ccccc1)c1ccc(OCCN(C)C)cc1)c1ccccc1 [TAMOXIFEN] | 1860
* CN1CCN(CCCN2c3ccccc3Sc3ccc(Cl)cc32)CC1 [PROCHLORPERAZINE] | 158
* O=C(CCCN1CC=C(n2c(=O)[nH]c3ccccc32)CC1)c1ccc(F)cc1 [DROPERIDOL] | 1650
* C1CCC(C(CC2CCCCN2)C2CCCCC2)CC1 (configuration not stated) [PERHEXILINE] | 785

The record that follows has no Ki shown yet.
Value of Ki reported for the compound CC(C)N1CCN(c2ccc(OCC3COC(Cn4cncn4)(c4ccc(Cl)cc4Cl)O3)cc2)CC1 (configuration not stated) [TERCONAZOLE] is 3130

###

Test: DRUGMATRIX: GABAA, Muscimol, Central radioligand binding (ligand: [3H] Muscimol)
Format: cell membranes, Rattus norvegicus, Wistar, Brain, Membrane
Measurement context: Not Active = under 50% inhibition at 10 µM
Value kind: IC50

These recorded examples may help you get a feel for the data.
- N[C@@H](Cc1ccc(N(CCCl)CCCl)cc1)C(=O)O: Not Active
- CC1=C2C(=CO[C@H](C)[C@H]2C)C(O)=C(C(=O)O)C1=O: Not Active
- Cc1ccc(-c2cc(C(F)(F)F)nn2-c2ccc(S(N)(=O)=O)cc2)cc1: Not Active
- Nc1nc2c(ncn2CCC(CO)CO)c(=O)[nH]1: Not Active
- COc1cc2c3cc1Oc1cc(ccc1O)C[C@@H]1c4c(cc(OC)c(O)c4Oc4ccc(cc4)C[C@@H]3N(C)CC2)CC[N+]1(C)C.[Cl-]: Not Active

Value of IC50 reported for the compound Cc1cc(C(C#N)c2ccc(Cl)cc2)c(Cl)cc1NC(=O)c1cc(I)cc(I)c1O (centres undefined) is Not Active

Value of IC50 reported for the compound Nc1c(Br)cc(Br)cc1CN[C@H]1CC[C@H](O)CC1 is Not Active

###

System: Prostaglandin G/H synthase 1 (Homo sapiens, UniProt P23219); further: in other assays of this panel Not Active means under 50% inhibition at 10 µM;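 further: inhibition of COX-1 enzyme activity, with arachidonic acid supplied as substrate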
Sequence (P23219 whole entry): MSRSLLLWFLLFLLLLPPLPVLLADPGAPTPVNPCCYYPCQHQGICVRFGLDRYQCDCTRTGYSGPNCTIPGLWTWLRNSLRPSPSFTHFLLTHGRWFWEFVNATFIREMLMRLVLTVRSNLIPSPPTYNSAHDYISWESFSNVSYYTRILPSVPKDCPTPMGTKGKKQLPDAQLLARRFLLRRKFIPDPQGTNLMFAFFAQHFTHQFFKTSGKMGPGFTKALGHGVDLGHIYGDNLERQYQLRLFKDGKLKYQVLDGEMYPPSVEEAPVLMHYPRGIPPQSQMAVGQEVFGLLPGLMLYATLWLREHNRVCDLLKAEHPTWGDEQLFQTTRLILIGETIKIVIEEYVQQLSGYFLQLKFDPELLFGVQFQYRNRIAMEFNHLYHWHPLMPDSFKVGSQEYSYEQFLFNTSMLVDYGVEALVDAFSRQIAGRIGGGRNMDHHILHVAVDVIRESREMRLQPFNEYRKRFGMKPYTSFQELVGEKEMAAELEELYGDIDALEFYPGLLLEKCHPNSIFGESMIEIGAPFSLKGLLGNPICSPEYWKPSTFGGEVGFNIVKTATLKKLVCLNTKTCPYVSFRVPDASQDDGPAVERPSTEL
Test: biochemical
Format: tissue-based, Platelet
Measurement context: read-out: IC50
Value kind: pIC50
Note on pIC50: it is the negative log10 of concentration, concentration in mol/L.

These recorded examples may help you get a feel for the data.
* CC/C(=C(\c1ccccc1)c1ccc(OCCN(C)C)cc1)c1ccccc1 | 5.36
* Nc1nc2nc[nH]c2c(=S)[nH]1 | 6.22
* c1ccc(Nc2ccc(Nc3ccccc3)cc2)cc1 | 6.59

The record that follows has no pIC50 shown yet.
Value of pIC50 reported for the compound Sc1ncnc2nc[nH]c12 [MERCAPTOPURINE ANHYDROUS] is 4.79

###

System: 5-hydroxytryptamine receptor 6 (Homo sapiens); further: in other assays of this panel Not Active means under 50% inhibition at 10 µM
Sequence (P50406 whole entry): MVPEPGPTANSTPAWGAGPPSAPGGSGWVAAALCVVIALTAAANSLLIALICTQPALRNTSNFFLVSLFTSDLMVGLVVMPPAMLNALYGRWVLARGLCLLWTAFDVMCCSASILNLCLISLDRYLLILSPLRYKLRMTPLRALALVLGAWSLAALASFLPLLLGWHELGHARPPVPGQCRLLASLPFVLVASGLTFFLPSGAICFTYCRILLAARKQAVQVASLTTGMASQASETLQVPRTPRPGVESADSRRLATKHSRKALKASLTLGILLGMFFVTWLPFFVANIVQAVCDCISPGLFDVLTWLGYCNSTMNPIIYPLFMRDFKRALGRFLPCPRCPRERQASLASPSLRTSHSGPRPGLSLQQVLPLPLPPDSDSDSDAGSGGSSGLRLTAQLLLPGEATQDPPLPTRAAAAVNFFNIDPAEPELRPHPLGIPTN
Type: cell membranes, HeLa, Membrane
Measurement context: read-out: Ki
Value kind: Ki (nM)
Numbers only here, please. The scale is nM.

* CC(C)C(=O)Nc1ccc([N+](=O)[O-])c(C(F)(F)F)c1 [FLUTAMIDE] | 8270
* CC(C)[C@H]1C(=O)N2CCC[C@H]2[C@]2(O)O[C@](NC(=O)[C@@H]3C=C4c5cccc6[nH]cc(c56)C[C@H]4N(C)C3)(C(C)C)C(=O)N12 [ERGOCORNINE] | 7.09
* CCCCc1oc2ccccc2c1C(=O)c1cc(I)c(OCCN(CC)CC)c(I)c1 [AMIODARONE] | 9030
* CCCN1C[C@H](CSC)C[C@@H]2c3cccc4[nH]cc(c34)C[C@H]21 [PERGOLIDE] | 18
* CN1CCN(CCCN2c3ccccc3Sc3ccc(Cl)cc32)CC1 [PROCHLORPERAZINE] | 124

Value of Ki reported for the compound CC(C)[C@@]1(NC(=O)[C@@H]2C[C@@H]3c4cccc5[nH]cc(c45)C[C@H]3N(C)C2)O[C@@]2(O)[C@@H]3CCCN3C(=O)[C@H](Cc3ccccc3)N2C1=O.CS(=O)(=O)O [DIHYDROERGOCRISTINE MESYLATE] is 19

Value of Ki reported for the compound CN(C)CCCN1c2ccccc2Sc2ccccc21 [PROMAZINE] is 127

Value of Ki reported for the compound CC[C@@H](CO)NC(=O)[C@@H]1C=C2c3cccc4[nH]cc(c34)C[C@H]2N(C)C1 [METHYLERGONOVINE] is 1.18

Value of Ki reported for the compound CC/C(=C(\c1ccccc1)c1ccc(OCCN(C)C)cc1)c1ccccc1 [TAMOXIFEN] is 1240

###

System: 5-hydroxytryptamine receptor 1B (Rattus norvegicus); further: in other assays of this panel Not Active means under 50% inhibition at 10 µM
Sequence (P28564 whole entry): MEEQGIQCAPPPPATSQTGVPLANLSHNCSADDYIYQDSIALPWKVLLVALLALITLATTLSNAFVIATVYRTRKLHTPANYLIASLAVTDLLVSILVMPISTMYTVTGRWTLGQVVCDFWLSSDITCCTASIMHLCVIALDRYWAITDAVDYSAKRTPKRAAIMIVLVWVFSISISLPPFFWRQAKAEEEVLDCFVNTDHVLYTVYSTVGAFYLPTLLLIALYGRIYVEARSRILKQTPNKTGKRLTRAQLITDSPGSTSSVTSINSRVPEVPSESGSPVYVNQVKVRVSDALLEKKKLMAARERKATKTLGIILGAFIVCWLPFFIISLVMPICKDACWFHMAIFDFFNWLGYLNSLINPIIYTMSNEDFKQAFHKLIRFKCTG
Assay type: cell membranes, Wistar, Cerebral cortex, Membrane
Measurement context: read-out: IC50
pIC50: −log10 of the molar value.
Class t: pIC50 at least 6. Class f: pIC50 below 6.

Answered examples (5):
• CC(C)[C@@]1(NC(=O)[C@@H]2C[C@@H]3c4cccc5[nH]cc(c45)C[C@H]3N(C)C2)O[C@@]2(O)[C@@H]3CCCN3C(=O)[C@H](Cc3ccccc3)N2C1=O.CS(=O)(=O)O [DIHYDROERGOCRISTINE MESYLATE] = t
• CN1CCN(CCCN2c3ccccc3Sc3ccc(Cl)cc32)CC1 = f
• CC(C)[C@H]1C(=O)N2CCC[C@H]2[C@]2(O)O[C@](NC(=O)[C@@H]3C=C4c5cccc6[nH]cc(c56)C[C@H]4N(C)C3)(C(C)C)C(=O)N12 = t
• CN(C)CCCN1c2ccccc2Sc2ccc(Cl)cc21 = f
• CCCCc1oc2ccccc2c1C(=O)c1cc(I)c(OCCN(CC)CC)c(I)c1 = f

Req: Does the reported pIC50 for CC[C@@H](CO)NC(=O)[C@@H]1C=C2c3cccc4[nH]cc(c34)C[C@H]2N(C)C1 fall at or above the 6 mark?
Resp: t

Req: Does the reported pIC50 for CCCN1C[C@H](CSC)C[C@@H]2c3cccc4[nH]cc(c34)C[C@H]21 [PERGOLIDE] fall at or above the 6 mark?
Resp: t

Req: Does the reported pIC50 for CC(C)N1CCN(c2ccc(OCC3COC(Cn4cncn4)(c4ccc(Cl)cc4Cl)O3)cc2)CC1 (stereo not drawn) fall at or above the 6 mark?
Resp: f

###

System: Alpha-1A adrenergic receptor (Rattus norvegicus, UniProt P43140)
Sequence (P43140 whole entry): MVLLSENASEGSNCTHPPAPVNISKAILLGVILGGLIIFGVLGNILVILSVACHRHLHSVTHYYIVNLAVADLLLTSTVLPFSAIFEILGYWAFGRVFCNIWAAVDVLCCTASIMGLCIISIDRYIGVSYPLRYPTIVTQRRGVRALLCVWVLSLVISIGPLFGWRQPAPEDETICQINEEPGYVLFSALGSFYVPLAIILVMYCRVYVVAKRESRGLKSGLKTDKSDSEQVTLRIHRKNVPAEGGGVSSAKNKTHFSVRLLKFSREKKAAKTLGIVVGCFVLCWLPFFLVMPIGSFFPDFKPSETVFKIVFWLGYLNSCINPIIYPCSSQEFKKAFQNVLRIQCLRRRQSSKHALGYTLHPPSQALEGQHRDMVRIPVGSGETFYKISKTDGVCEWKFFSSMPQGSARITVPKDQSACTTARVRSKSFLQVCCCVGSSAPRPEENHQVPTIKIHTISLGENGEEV
Test: DRUGMATRIX: Alpha-1A adrenergic receptor radioligand binding (ligand: prazosin)
Assay type: cell membranes, Wistar, Submaxillary gland, Membrane
Measurement context: Not Active = under 50% inhibition at 10 µM; read-out: IC50
Hi! Could you tag entries with IC50 below 9 nM as met, and those at or above as not met? Much appreciated.

Answered examples (5):
* CC/C(=C(\c1ccccc1)c1ccc(OCCN(C)C)cc1)c1ccccc1 | not met
* CC(C)[C@H]1C(=O)N2CCC[C@H]2[C@]2(O)O[C@](NC(=O)[C@@H]3C=C4c5cccc6[nH]cc(c56)C[C@H]4N(C)C3)(C(C)C)C(=O)N12 | not met
* CC(C)[C@@]1(NC(=O)[C@@H]2C[C@@H]3c4cccc5[nH]cc(c45)C[C@H]3N(C)C2)O[C@@]2(O)[C@@H]3CCCN3C(=O)[C@H](Cc3ccccc3)N2C1=O.CS(=O)(=O)O [DIHYDROERGOCRISTINE MESYLATE] | met
* O=C(CCCN1CC=C(n2c(=O)[nH]c3ccccc32)CC1)c1ccc(F)cc1 | met
* COc1cc2nc(N3CCN(C(=O)C4COc5ccccc5O4)CC3)nc(N)c2cc1OC (configuration not stated) | met

Now take the following compound into account.
Req: Identify whether the compound CCCN1C[C@H](CSC)C[C@@H]2c3cccc4[nH]cc(c34)C[C@H]21 [PERGOLIDE] records IC50 below 9 nM.
Resp: not met
